biological target: recombinant catalytic a domain of human PDI A1 (PDIa) (Homo sapiens, UniProt P07237); construct: made in house; host or cells: Escherichia coli BL21-Gold (DE3); assay: Insulin aggregation assay (PDIa reductase activity); format: biochemical; conditions: Table 5
Sequence (P07237 with tags, fused parts or gaps): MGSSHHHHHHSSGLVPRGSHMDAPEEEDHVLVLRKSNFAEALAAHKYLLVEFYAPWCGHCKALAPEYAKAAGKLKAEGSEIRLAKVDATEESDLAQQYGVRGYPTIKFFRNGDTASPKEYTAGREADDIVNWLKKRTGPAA
READOUT_KIND: Insulin Assay (either active or inactive)

# GIVEN_SMILES, ASSAYED_SYSTEM, RECORDED_MEASUREMENT
measured = [
    ("CC(C)(C)OC(=O)NC1CCN(Cn2sc3ccccc3c2=O)CC1", "recombinant catalytic a domain of human PDI A1 (PDIa) (Homo sapiens, UniProt P07237)", "Active"),
    ("O=c1[nH]sc2ncccc12", "recombinant catalytic a domain of human PDI A1 (PDIa) (Homo sapiens, UniProt P07237)", "not active"),
    ("O=c1c2ccccc2sn1CN1CCN(Cc2ccccc2)CC1", "recombinant catalytic a domain of human PDI A1 (PDIa) (Homo sapiens, UniProt P07237)", "Active"),
    ("O=C(C1CC1)N1CCN(Cn2sc3c(C(F)(F)F)cccc3c2=O)CC1", "recombinant catalytic a domain of human PDI A1 (PDIa) (Homo sapiens, UniProt P07237)", "not active"),
    ("O=c1c2ccccc2sn1-c1ccc(Cc2ccccc2)cc1", "recombinant catalytic a domain of human PDI A1 (PDIa) (Homo sapiens, UniProt P07237)", "not active"),
]
